Recorded Ki for compounds tested on UniProtKB P31390, drawn from a number of studies.
Sequence (P31390 whole entry): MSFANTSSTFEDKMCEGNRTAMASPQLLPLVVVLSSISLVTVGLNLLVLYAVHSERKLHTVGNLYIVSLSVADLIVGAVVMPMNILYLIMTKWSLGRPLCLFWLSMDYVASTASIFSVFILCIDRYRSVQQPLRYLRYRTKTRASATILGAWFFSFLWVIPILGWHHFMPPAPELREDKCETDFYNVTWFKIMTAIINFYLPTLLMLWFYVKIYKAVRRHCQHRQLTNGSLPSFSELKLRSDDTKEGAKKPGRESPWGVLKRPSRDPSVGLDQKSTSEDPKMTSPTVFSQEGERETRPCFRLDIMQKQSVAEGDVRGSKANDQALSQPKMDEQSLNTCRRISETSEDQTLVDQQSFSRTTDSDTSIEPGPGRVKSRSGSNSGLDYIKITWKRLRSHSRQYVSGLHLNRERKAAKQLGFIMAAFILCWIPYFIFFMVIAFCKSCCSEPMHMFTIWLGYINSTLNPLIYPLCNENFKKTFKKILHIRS

Sample answers from the record:
>>> print(df.to_string())
                                   compound  data_value
0  NC(=O)c1ccc(F)c2c1CC(N(C1CCC1)C1CCC1)CO2 (stereo unspecified)     > 10 µM
1                N[C@H](CCS(=O)(=O)O)C(=O)O     > 10 µM
2                       CSCC[C@@H](N)C(=O)O     > 10 µM
3  CCN1CCN(c2cc(-c3ccc(F)cc3)c3c(n2)CCCCCC3)CC1     3.01 µM
4  CNCCC(Oc1ccccc1C)c1ccccc1 (stereo unspecified)      6.4 µM
5          CN1Cc2c(N)cccc2[C@H](c2ccccc2)C1     > 10 µM

Given the entry NC(=NCc1ccccc1)NC(=O)c1nc(Cl)c(N)nc1N , report its measured Ki.
3.2 µM
